Biological target: T1, human chemokine (C-C motif) receptor 8 (CCR8) (human, UniProt P51685 1-355)
T1 construct: On human peripheral blood lymphocytes / PBMC (native) or on human CCR8 GFP-transfected Ba/F3 cells; also called hCCR8; human CCR8
T1 sequence (P51685 whole entry): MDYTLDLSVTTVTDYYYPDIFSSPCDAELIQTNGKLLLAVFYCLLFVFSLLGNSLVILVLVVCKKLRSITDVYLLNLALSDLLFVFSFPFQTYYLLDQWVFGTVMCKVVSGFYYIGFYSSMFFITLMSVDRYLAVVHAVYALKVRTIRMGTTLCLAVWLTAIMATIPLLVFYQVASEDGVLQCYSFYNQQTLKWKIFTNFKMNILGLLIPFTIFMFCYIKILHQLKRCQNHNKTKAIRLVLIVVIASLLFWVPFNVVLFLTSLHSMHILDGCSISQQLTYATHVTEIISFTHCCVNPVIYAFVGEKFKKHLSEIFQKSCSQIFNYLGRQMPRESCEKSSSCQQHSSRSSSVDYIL
Test: flow cytometry blocking, PBMC CCR8+ CD4+ cells; competitor PE-AB13 (its MFI is read)
metric: MFI
Could you keep your reply to the number by itself?

Example results:
# binder, metric, data-value
records = [
    ("AB5 (antibody, V domains shown, Hybridoma monoclonal; also called antibody 5; clone 5) VH: QVQLKESGPGLVQPSQTLSLTCTVSGFSLTSYHVSWVRQPPGKGLEWMGVIWTGGSTTYNSLLKSRLSISRDISKSQVFLKMNSLQTEDTATYYCARGGTVVKGGFAYWGQGTLVTVSS VL: DIQMTQSPASLSASLEEIVTITCQASQDIGNRLSWYQQKPGKSPQLLIYGATSLADGVPSRFSGSRSGTQYSLKISRLQVEDIGIYYCLQAYSTPLTFGSGTKLEIK", "MFI", 990),
    ("AB3 (antibody, V domains shown, Hybridoma monoclonal; also called antibody 3; clone 3) VH: QVQLKESGPGLVKPSETLSLTCTVSGFSLTSYHISWVRQPPGKGLEWMGVIWGDGKTTYNSALKSRLSISRDTSKSQVFLKMNSLKTEDTATYYCARGGDSGFAYWGQGTLVTVSS VL: DIQMTQSPASLSASLEEIVTITCQASQDIGNWLSWYQQKPGKSPQLLIYGTTNLADGVPSRFSGSRSGTQYSLKISRLQVEDIGIYYCLQAYSVPLTFGSGTKLEIK", "MFI", 870),
]

Query: Quick one: give measured MFI for AB11 (antibody, V domains shown, Hybridoma monoclonal; also called antibody 11; clone 11) VH: EVQLVESGGGLVQPKGSLKLSCAASGFAFNTYAMNWVRQAPGKGLEWIARLRSKSNFYATYYADSVKDRFTISRDDSQSMLYLQMNNLKTEDTAVYYCVRGRELGPSYAMDYWGQGTSVTVSS VL: DIVMTQAAPSVPVTPGESVSISCRSSKSLLHSNGNTYLYWFLQRPGQSPQLLIYRMSNLASGVPDRFSGSGSGTAFTLRISRVEAEDVGVYYCMQHLEYPYTFGGGTKLEIK
Response: 867
